In this section, each of the molecules is paired with its reported Small intestine concentration ratio (metabolite/capecitabine).
test: Tissue concentrations of capecitabine and its metabolites 2 h after oral capecitabine in CES2-modified mice; type: in vivo, mouse; conditions: female Ces2^–/– mice, oral capecitabine 500 mg/kg
Lab note: jot down the number only; don't add units.

A selection of reference data follows.
{"columns": ["Molecule", "Assay result"],
 "data": [
  ["O=c1[nH]cc(F)c(=O)[nH]1 [5-FU, 5-fluorouracil, reference compound]", 0.32],
  ["C[C@H]1O[C@@H](n2cc(F)c(N)nc2=O)[C@H](O)[C@@H]1O", 0.36],
  ["C[C@H]1O[C@@H](n2cc(F)c(=O)[nH]c2=O)[C@H](O)[C@@H]1O", 0.32]
]}

Query: Quote Small intestine concentration ratio (metabolite/capecitabine) reported for NCC(F)C(=O)O (stereo not shown) please.
Response: 0.08

* * *

experiment: Plasma pharmacokinetics of vinorelbine and deacetylvinorelbine after i.v. vinorelbine in CES2-modified mice; details: male, mouse, plasma, iv, 10 mg/kg, AUC0-4h, male Ces2^–/–V mice; i.v. vinorelbine 10 mg/kg
Parameter measured: AUC(0-t) (ng·h/mL)
Write the answer as a number in ng·h/mL, unit excluded.

Query: Fill in AUC(0-t) for record CCC1=C[C@@H]2CN(C1)Cc1c([nH]c3ccccc13)[C@@](C(=O)OC)(c1cc3c(cc1OC)N(C)[C@H]1[C@@](O)(C(=O)OC)[C@H](OC(C)=O)[C@]4(CC)C=CCN5CC[C@]31[C@@H]54)C2 [Vinorelbine, reference compound]
Response: 9790

* * *

assay: Tissue concentrations of vinorelbine and deacetylvinorelbine 4 h after i.v. vinorelbine in CES2-modified mice; format: in vivo, mouse; conditions: male, mouse, liver, intravenous, 10 mg/kg, male Ces2^–/–V mice, i.v. vinorelbine 10 mg/kg, read-out: Cliver (liver concentration)
Parameter measured: concentration at 4 h (ng/g)
Report as a plain number; the unit ng/g is understood.

Query: Answer with the recorded concentration at 4 h for the molecule listed here: CCC1=C[C@@H]2CN(C1)Cc1c([nH]c3ccccc13)[C@@](C(=O)OC)(c1cc3c(cc1OC)N(C)[C@H]1[C@@](O)(C(=O)OC)[C@H](OC(C)=O)[C@]4(CC)C=CCN5CC[C@]31[C@@H]54)C2 [Vinorelbine, reference compound]
Response: 24700

* * *

experiment: Tissue concentrations of capecitabine and its metabolites 2 h after oral capecitabine in CES2-modified mice; type: in vivo, mouse; details: female wild-type mice, oral capecitabine 500 mg/kg
Listed compounds paired with reported Small intestine concentration ratio (metabolite/capecitabine)
Number only, please.

// worked examples, Small intestine concentration ratio (metabolite/capecitabine) included
{"columns": ["Compound", "Assay result"],
 "data": [
  ["NCC(F)C(=O)O (stereo not shown)", 0.86],
  ["O=c1[nH]cc(F)c(=O)[nH]1 [5-FU, 5-fluorouracil, reference compound]", 2.1]
]}

Query: Specify measured Small intestine concentration ratio (metabolite/capecitabine) for `C[C@H]1O[C@@H](n2cc(F)c(N)nc2=O)[C@H](O)[C@@H]1O` .
Response: 3.20

Query: Dear colleague, please send me the reported Small intestine concentration ratio (metabolite/capecitabine) for `C[C@H]1O[C@@H](n2cc(F)c(=O)[nH]c2=O)[C@H](O)[C@@H]1O` when you can.
Response: 1.50

* * *

assay: Tissue concentrations of capecitabine and its metabolites 2 h after oral capecitabine in CES2-modified mice; type: in vivo, mouse; details: female, Ces2^-/-V, mouse, liver, oral, 500 mg/kg, female Ces2^–/–V mice, oral capecitabine 500 mg/kg, read-out: Cliver (liver concentration)
Parameter measured: concentration at 2 h (ng/g)
Response body: numeric value in ng/g, unit text excluded.

{"columns": ["Compound", "Assay result"],
 "data": [
  ["CCCCCOC(=O)Nc1nc(=O)n([C@@H]2O[C@H](C)[C@@H](O)[C@H]2O)cc1F [Capecitabine, reference compound]", 6570],
  ["O=c1[nH]cc(F)c(=O)[nH]1 [5-FU, 5-fluorouracil, reference compound]", 1420]
]}

We next turn to a different compound, shown below.
Query: // Input: `C[C@H]1O[C@@H](n2cc(F)c(N)nc2=O)[C@H](O)[C@@H]1O` . Output its concentration at 2 h only.
Response: 23300

* * *

test: Plasma pharmacokinetics of capecitabine and its metabolites after oral capecitabine in CES2-modified mice; type: in vivo, mouse; conditions: female, Ces2^–/– (Ces2 cluster knockout), mouse, plasma, po, 500 mg/kg, female Ces2^–/– mice; oral capecitabine 500 mg/kg; plasma; read-out: Cmax
Parameter measured: Cmax (µg/mL)
Respond with the bare value in µg/mL.

// solved cases for Cmax follow
{"columns": ["Compound", "Parameter measured", "Assay result"],
 "data": [
  ["CCCCCOC(=O)Nc1nc(=O)n([C@@H]2O[C@H](C)[C@@H](O)[C@H]2O)cc1F [Capecitabine, reference compound]", "Cmax", 42.6],
  ["O=c1[nH]cc(F)c(=O)[nH]1 [5-FU, 5-fluorouracil, reference compound]", "Cmax", 0.147]
]}

Switching to the query record.
Query: Return reported Cmax. Input compound: `C[C@H]1O[C@@H](n2cc(F)c(N)nc2=O)[C@H](O)[C@@H]1O`
Response: 121

* * *

The entries below are paired with their reported concentration at 2 h.
assay: Tissue concentrations of capecitabine and its metabolites 2 h after oral capecitabine in CES2-modified mice; type: in vivo, mouse; settings: female, Ces2^-/-, mouse, liver, oral, 500 mg/kg, female Ces2^–/– mice, oral capecitabine 500 mg/kg, read-out: Cliver (liver concentration)

Query: # return recorded concentration at 2 h for entry `C[C@H]1O[C@@H](n2cc(F)c(N)nc2=O)[C@H](O)[C@@H]1O`
Response: 33300 ng/g

Query: Quote concentration at 2 h reported for O=c1[nH]cc(F)c(=O)[nH]1 [5-FU, 5-fluorouracil, reference compound] please.
Response: 1520 ng/g

Query: For the molecule CCCCCOC(=O)Nc1nc(=O)n([C@@H]2O[C@H](C)[C@@H](O)[C@H]2O)cc1F [Capecitabine, reference compound] , report concentration at 2 h.
Response: 18000 ng/g

* * *

assay: Plasma pharmacokinetics of capecitabine and its metabolites after oral capecitabine in CES2-modified mice; type: in vivo, mouse; conditions: female, Ces2^–/– (Ces2 cluster knockout), mouse, plasma, po, 500 mg/kg, female Ces2^–/– mice; oral capecitabine 500 mg/kg; plasma; read-out: Tmax
Parameter measured: Tmax (min)
Give just the number in min; leave the unit off.

Query: Quickly give me recorded Tmax for O=c1[nH]cc(F)c(=O)[nH]1 [5-FU, 5-fluorouracil, reference compound]
Response: 55.8

Query: Name the recorded Tmax of the item `C[C@H]1O[C@@H](n2cc(F)c(N)nc2=O)[C@H](O)[C@@H]1O` in your answer.
Response: 27.6

Query: For the compound CCCCCOC(=O)Nc1nc(=O)n([C@@H]2O[C@H](C)[C@@H](O)[C@H]2O)cc1F [Capecitabine, reference compound] , give its reported Tmax.
Response: 12.6
